System: ragweed (common ragweed, Ambrosia elatior)
experiment summary: Test A postemergence
Type: in vivo
run parameters: Ambrosia artemisiifolia, post-emergence, 240 h, Postemergence, 31 g ai/ha; visual injury after approx. 10 d; 0 to 100 scale, 0 no effect, 100 complete control; read-out: Plant response rating, Ragweed
Excerpt: […]
pest or weed control at 31 g/ha by entry:

{"columns": ["molecule", "unit name", "pest or weed control at 31 g/ha"],
 "data": [
  ["COCc1ccccc1NC(=O)[C@H]1C(=O)N(C)C[C@@H]1c1cccc(C(F)(F)F)c1 (racemic)", "%", 0],
  ["COc1cc([C@H]2CN(C)C(=O)[C@@H]2C(=O)Nc2cccc(F)c2F)ccc1C(F)(F)F", "%", 0],
  ["C/C=C/C1CNC(=O)C1C(=O)Nc1cccc(F)c1F (stereo not drawn)", "%", 0]
]}

====

Barnyardgrass plant response rating (0 to 100 scale) by entry:
System: barnyardgrass (Echinochloa crus-galli)
experiment summary: Test A preemergence
Type: in vivo
run parameters: Preemergence, 500 g ai/ha; 0 is no effect, 100 is complete control
From the text: […]
readout name: Barnyardgrass plant response rating (0 to 100 scale)

{"columns": ["molecule", "observed result"],
 "data": [
  ["O=C1NCC(c2cccc(OCC(F)F)c2)C1C(=O)Nc1ccccc1F (racemic)", 80],
  ["Cc1ccc(C2CNC(=O)C2C(=O)Nc2cccc(F)c2F)cc1F (racemic)", 90],
  ["CN1CC(c2cccc(OC(F)(F)C(F)F)c2)C(C(=O)Nc2ccc(F)cc2F)C1=O (stereo not shown)", 90],
  ["O=C1NCC(c2cccc(OCC(F)F)c2)C1C(=O)Nc1ccc(F)cc1F (stereo not shown)", 80]
]}

====

pest or weed control at 500 g/ha by entry:
Test system: Kochia (Kochia scoparia)
experiment summary: Test A postemergence
Format: in vivo
run parameters: Bassia scoparia, post-emergence, 240 h, 500 g ai/ha, postemergence; 0 to 100 scale, 0 is no effect, 100 is complete control; read-out: Kochia plant response rating

{"columns": ["compound", "pest or weed control at 500 g/ha / %"],
 "data": [
  ["O=C1NC[C@H](c2cc(C(F)F)cs2)[C@H]1C(=O)Nc1ccccc1F [Compound 1116]", 30],
  ["CN1C[C@H](c2ccc(C(F)(F)F)cc2)[C@@H](C(=O)Nc2cccc(Cl)c2F)C1=O [Compound 1238]", 50],
  ["O=C1NC[C@H](c2cc(C(F)F)cs2)[C@H]1C(=O)Nc1cccc(F)c1F [Compound 1117]", 40],
  ["CN1C[C@H](c2ccc3c(c2)OC(F)(F)O3)[C@@H](C(=O)Nc2ccc(F)c(F)c2F)C1=O [Compound 1204]", 80],
  ["Cc1cc([C@H]2CNC(=O)[C@@H]2C(=O)Nc2ccccc2C(F)(F)F)ccc1Cl [Compound 1245]", 40],
  ["CCc1ccc([C@H]2CNC(=O)[C@@H]2C(=O)Nc2cccc(F)c2C)cc1 [Compound 1177]", 0],
  ["Cc1c(F)cccc1NC(=O)[C@H]1C(=O)N(C)C[C@@H]1c1ccc(OC(F)F)cc1 [Compound 1213]", 60],
  ["N#Cc1cc([C@H]2CNC(=O)[C@]2(O)C(=O)Nc2ccccc2F)ccc1F [Compound 1200]", 0]
]}
